Values were extracted from patent US10760110B2.

Test system: K. pneumoniae NVT1001 strains with ESBL or AmpC β-lactamase plasmids
Measurement notes: Etest MIC of β-lactams, OmpK35/36 loss, ΔramR and/or extended-spectrum β-lactamase and AmpC β-lactamase (Table 8)
Type: cell-based, Klebsiella pneumoniae
Conditions used: Klebsiella pneumoniae, DHA-1-AmpR on pACYC177; ΔramRΔ35 (ΔramRΔompK35 mutant)
Task for the reader: assign each of the following compounds its reported MIC.
Answer format: numeric, µg/mL implied, no suffix.

Q) Query the reported MIC for K. pneumoniae NVT1001 strains with ESBL or AmpC β-lactamase plasmids; item: CC(C)(O/N=C(\C(=O)N[C@@H]1C(=O)N2C(C(=O)[O-])=C(C[n+]3ccccc3)CS[C@H]12)c1csc(N)n1)C(=O)O
A) 64

Q) Another: C[C@@H](O)[C@H]1C(=O)N2C(C(=O)O)=C(SCCN=CN)C[C@H]12
A) 0.25

Q) Item: C[C@@H](O)[C@H]1C(=O)N2C(C(=O)O)=C(S[C@@H]3CN[C@H](C(=O)Nc4cccc(C(=O)O)c4)C3)[C@H](C)[C@H]12
A) 1

Q) Now this one: C[C@H]1[C@H](NC(=O)/C(=N\OC(C)(C)C(=O)O)c2csc(N)n2)C(=O)N1S(=O)(=O)O
A) 4

Q) And for CCO/N=C(\C(=O)N[C@@H]1C(=O)N2C(C(=O)[O-])=C(Sc3nc(-c4cc[n+](C)cc4)cs3)CS[C@H]12)c1nsc(N)n1 ?
A) 8
